Data provenance is paper PMC11079024.

Would you mind telling me the reported viability at 2 days, 12.5 µM of each entry?
# procedure.summary: in vitro
# condition.summary: human, HEK293 cells (Flp-In-293), HEK293 viability, Dose 12.5 µM
Numbers only, in %.

# count of solved cases: 3
{"smiles.string": "Cc1nc2ccccc2n1CCOc1ccccc1", "readout.kind": "viability at 2 days, 12.5 µM", "unit.string": "%", "recorded.value": 99.1}
{"smiles.string": "Cc1ccc(CSCc2nc3ccccc3[nH]2)cc1", "readout.kind": "viability at 2 days, 12.5 µM", "unit.string": "%", "recorded.value": 90}
{"smiles.string": "Cc1ccc(OCCn2cnc3ccccc32)c(C)c1", "readout.kind": "viability at 2 days, 12.5 µM", "unit.string": "%", "recorded.value": 100}

Consider the following items and state reported viability at 2 days, 12.5 µM for each.
1. CCc1cc(OCCn2cnc3ccccc32)ccc1Cl
2. Clc1ccc(SCCCCn2cnc3ccccc32)cc1
3. Clc1ccc(Cn2cnc3ccccc32)c(Cl)c1
4. Cc1ccccc1OCCCn1c(C)nc2ccccc21
5. FC(F)(F)c1cccc(OCCCCn2cnc3ccccc32)c1
6. Nc1nc2ccccc2n1CCOc1ccc(Br)cc1
7. Cc1nc2ccccc2n1CCOc1ccccc1Cl

Response line:
[93.6, 94.2, 100, 95.2, 100, 67.8, 100]
